Test: inhibition of 3D7 malaria parasite growth – strain 3D7 (AID 2306);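 also: 0% = DMSO wells and 100% = chloroquine plus artemisinin control wells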
Conditions: P. falciparum 3D7 erythrocytic growth, LDH absorbance, 72 h; at 2 µM; active compounds read high
Activity calls are given as the source filed them. No rule for the calls is given here.
Some compounds, each annotated with its measured growth inhibition.
observation.type: growth inhibition

>>> result("COc1ccc2c(NN=Cc3ccc(Cl)cc3)ccnc2c1")
"101% (active)"
>>> result("N[C@@H](COc1cccc2c(-c3ccncc3)c(-c3cccc(NC(=O)Nc4ccccc4)c3)nn12)c1ccccc1")
"101% (active)"
>>> result("Cc1ccc(-c2nc3ccc(C(=O)NC4CCC(N5CCCc6ccc(C#N)cc6C5)CC4)cc3[nH]2)cc1 (centres undefined)")
"101% (active)"
>>> result("Nc1ncc(Cc2ccc3c(ccc4ccccc43)c2)c(N)n1")
"97% (active)"
>>> result("COCc1ccccc1C(=O)NCCOc1cc(C)cc(C)c1")
"96% (active)"
>>> result("CC(C)(C)CCN1CCC(NC(=O)c2ccc(-c3cccc(C(F)(F)F)c3)s2)CC1")
"93% (active)"
>>> result("Cn1cnc(CCNC(=O)c2cccc(-c3ccc(-c4nc5ccc(F)cc5[nH]4)cc3)c2)c1")
"88% (active)"
>>> result("CN1CCCC(CN2CCN(Cc3cccc(-c4ccc(-c5nc6ccc(C(F)(F)F)cc6[nH]5)cc4)c3)CC2)C1 (centres undefined)")
"99% (active)"
>>> result("O=C(NCc1ccc(C(=O)NC2CCCCC2)cc1)c1ccc(O)c(-c2ccc(Cl)c(Cl)c2)c1")
"93% (active)"
>>> result("CCOc1cc(C(=O)NCCCN2CCN(c3cccc(Cl)c3)CC2)ccc1-c1nc2cc(Cl)c(F)cc2[nH]1")
"96% (active)"
>>> result("Cc1ccc(CNC(=O)[C@H](Cc2ccccc2)Nc2cc(C)nc(NCc3ccccc3C)n2)cc1")
"97% (active)"
>>> result("CN1CCN(CCCN(Cc2ccc(-c3ccc(CNCCc4ccccc4)cc3)cc2)C(=O)c2cccs2)CC1")
"98% (active)"
>>> result("O=C(C=Cc1ccc(Cl)c(Cl)c1)NCCCCCN1CCC(CCNC(=O)/C=C/c2ccccc2)CC1")
"97% (active)"
>>> result("CC1CCCCC1N(C)C1CCN(CCCNC(=O)C=Cc2cccc(C(F)(F)F)c2)CC1 (centres undefined)")
"100% (active)"
>>> result("CN(CCCN(C)c1cc(NC(=O)c2ccc(F)cc2)ccn1)Cc1cccc(F)c1")
"83% (active)"
>>> result("COc1ccc(CN=C(N)Nc2nc(-c3ccc(OCCCn4ccnc4)cc3)cs2)cc1")
"100% (active)"
>>> result("O=C(Cc1cnc[nH]1)Nc1cccc(-c2ccc(-c3nc4ccc(C(F)(F)F)cc4[nH]3)cc2)c1")
"102% (active)"
>>> result("COc1cc(NC2=NS(=O)(=O)c3cc(Cl)ccc3N2C)cc(OC)c1OC")
"101% (active)"
>>> result("CCC(C)(C)n1c(C)cc2c3c(N)nc(N)nc3ccc21")
"97% (active)"
>>> result("OC(CNc1cccc(Cl)c1)Cn1c2ccc(Cl)cc2c2cc(Cl)ccc21 (centres undefined)")
"95% (active)"
>>> result("COc1ccc(Nc2nc(N3CCCC3)c3ccccc3n2)cc1")
"102% (active)"
>>> result("COc1ccc(NC(=O)Nc2ccc(Nc3nc(C)cc(N4CCCC4)n3)cc2)cc1")
"101% (active)"
>>> result("CCN(CC)CCn1c(=N)n(CC(=O)c2ccc(-c3ccccc3)cc2)c2ccccc21")
"83% (active)"
>>> result("COc1ccccc1C1CC(c2ccc(C)cc2)=NN1C(=O)c1ccccc1 (centres undefined)")
"98% (active)"
>>> result("Cc1[nH]c2c(C)cccc2c1C1CCN(CCC2CCN(C(=O)/C=C/c3ccc(Cl)c(Cl)c3)CC2)CC1")
"100% (active)"
>>> result("CCOc1ccc(Cc2c(C)nc3nc(N)nc(N)c3c2C)cc1")
"91% (active)"
>>> result("CS(=O)(=O)CCNCc1cccc(-c2cc3nccc(Nc4ccc(Oc5ccccc5)cc4)c3cc2Cl)c1")
"100% (active)"
>>> result("O=c1ccc2ccc(F)c3c2n1CC3CN1CCC(NCc2ccc(-c3cccc(Cl)c3)nc2)CC1 (centres undefined)")
"96% (active)"
>>> result("CCCCC(=O)NC(c1cccs1)c1cc(Cl)c2cccnc2c1O (centres undefined)")
"93% (active)"
>>> result("Cc1cc(NN=Cc2ccccc2F)c2cc(C(F)(F)F)ccc2n1")
"102% (active)"
>>> result("COc1cc2c(cc1OC)CC(NCc1ccc(-c3ccc4nc[nH]c4c3)cc1)C2")
"97% (active)"
>>> result("COC(=O)c1sc(-c2ccc(Cl)cc2)cc1N(CCCN1CCC(N2CCCCC2)CC1)S(=O)(=O)c1ccc(C)cc1")
"103% (active)"
>>> result("Cc1cccc(Oc2cccc3[nH]nc(N)c23)c1")
"85% (active)"
>>> result("O=C(/C=C/c1ccc(Cl)c(Cl)c1)NCCCCCN1CCC(NC(=O)Nc2ccccc2F)CC1")
"95% (active)"
>>> result("O=C(Cc1ccc(NC(=O)c2ccc(O)c(-c3ccc(Cl)c(Cl)c3)c2)cc1)NCCN1CCOCC1")
"94% (active)"
>>> result("C[C@H]1[C@H](c2cccc(Cl)c2)OCC(C)(C)N1C(=O)CCN1CCCCC1")
"88% (active)"
>>> result("COc1cc(-c2nc3c4ccccc4c4ccccc4c3[nH]2)cc(OC)c1OC")
"90% (active)"
>>> result("CCc1ccc(NC(=O)c2ccc(CN3CCCN(CC4CCCCC4)CC3)cc2)cc1")
"96% (active)"
>>> result("Cc1cccc2[nH]c(-c3ccc(-c4ccc(CN5CCN(CCO)CC5)cc4)s3)nc12")
"92% (active)"

----------
Biological target: Calcium-dependent protein kinase 1 (Plasmodium falciparum (isolate 3D7))
Assay: PfCDPK1 kinase inhibitors, biochemical, TCAMS library (AID 1159585);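 also: inhibitors leave more ATP so luminescence rises with inhibition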
Settings: recombinant PfCDPK1, Kinase-Glo ATP depletion luminescence
Measured potencies and affinities stand elsewhere. Calls of active or inactive are those of the source. The limit is not given here; nearly all actives have IC50 up to about 0.98 µM.
observation.type: outcome

>>> result("COc1ccc2c(NN=Cc3ccccn3)ccnc2c1")
"inactive"
>>> result("COc1cc(OC)c(NC(=O)Nc2ccnc3ccccc23)cc1Cl")
"inactive"
>>> result("NC1=NC(c2ccccc2)N(c2ccc(Cl)c(Cl)c2)C(N)=N1 (stereo not given)")
"inactive"
>>> result("COc1ccc(CC2(c3ccc(F)cc3)N=C(N)N(CCCc3ccc(F)c(F)c3)C2=O)cc1 (stereo not given)")
"inactive"
>>> result("O=C(Nc1ccc(Cl)c(Cl)c1)C1CCC(=O)N1[C@@H](Cc1ccccc1)C(=O)NCCc1ccc(Cl)cc1 (stereo not given in full)")
"inactive"
>>> result("c1csc(-c2ccc3c(c2)CC(NCc2c[nH]c4cnccc24)C3)c1 (stereo not given)")
"inactive"
>>> result("CC(C)Cn1c(Sc2ccc(C#N)c([N+](=O)[O-])c2)nnc1-c1ccccc1")
"inactive"
>>> result("COc1cc2c(cc1C(F)(F)F)N(C(=O)Nc1cc(F)c(F)c(-c3cccnc3)c1)CC2")
"inactive"
>>> result("OC(CNCc1cccc(Oc2ccc(Cl)cc2)c1)c1cc(C(F)(F)F)cc(C(F)(F)F)c1 (stereo not given)")
"inactive"
>>> result("CCN1CCC(N(Cc2ccc(-c3ccc(C(F)(F)F)cc3)cc2)C(=O)CCCCn2c(CCc3cccc(F)c3F)nc(=O)c3ccccc32)CC1")
"inactive"
>>> result("COc1ccc(CCCCN2C(=O)C(c3ccccc3)(c3ccccc3)N=C2N)cc1")
"inactive"
>>> result("COc1ccc(S(=O)(=O)N(CC(=O)NN=C(C)c2cccs2)c2cc(C)cc(C)c2)cc1OC")
"inactive"
>>> result("Cc1ccc(C)c(CC(=O)N2CCC(n3c(C)nc4ccc(F)cc43)CC2)c1")
"inactive"
>>> result("CCCC1N=C(N)N=C(N)N1c1ccccc1 (stereo not given)")
"inactive"
>>> result("CN1CCN(c2ccc(-c3cccc(NC(=O)c4cccc(Cl)c4)c3)nn2)CC1")
"inactive"
>>> result("COc1cccc(NC(=O)N2CCOC(CCN3CCC4(CCc5ccccc54)CC3)(c3ccc(Cl)c(Cl)c3)C2)c1 (stereo not given)")
"inactive"
>>> result("NC(=NCCCCCCCCN=C(N)Nc1ccc(Cl)cc1)Nc1ccc(Cl)cc1")
"inactive"
>>> result("CC(C)(C)c1ccc(NC(=O)Nc2ccc(Cn3ncc(N4CCCNCC4)c(Cl)c3=O)cc2)cc1")
"inactive"
>>> result("CN(C)CCCOc1cccc(NC(=O)Nc2ccc(-c3ccccc3)cc2)c1")
"inactive"
>>> result("Nc1nc2c(ncn2OC[C@H]2COP(=O)(O)CO2)c(=O)[nH]1")
"inactive"

----------
Molecular target: Calcium-dependent protein kinase 1 (Plasmodium falciparum (isolate 3D7))
Assay: PfCDPK1 kinase inhibitors, biochemical, TCAMS library (AID 1159585);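 also: inhibitors leave more ATP so luminescence rises with inhibition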
Conditions: recombinant PfCDPK1, Kinase-Glo ATP depletion luminescence
Results with a measured potency or affinity are listed apart. Activity calls are given as the source filed them. Cut-off not given; nearly all actives show IC50 up to about 0.98 µM.
observation.type: outcome

>>> result("CCOC(=O)CCCOc1c(OC)cc(Cc2cnc(N)nc2N)cc1OC")
"inactive"
>>> result("CCCOc1cc(Cc2cnc(N)nc2N)cc(OC)c1OC")
"inactive"
>>> result("COc1ccc(Cl)cc1NC(=O)Nc1ccc2c(c1)CCN(C1CCC1)CC2")
"inactive"
>>> result("Cc1cccc(C(=O)Nc2ccnc(N(C)CCCN(C)Cc3cccc(O)c3)c2)c1")
"inactive"
>>> result("CO/C(=C\\C=C\\c1cc2cc(Cl)c(Cl)cc2[nH]1)C(=O)NCCN1CCCCC1")
"inactive"
>>> result("COc1cc2c(cc1OCCN1CCC(N)CC1)N(C(=O)/C=C/c1ccccc1Cl)CC2")
"inactive"
>>> result("CC1(C)N=C(N)NC(NOCC=Cc2ccccc2)=N1")
"inactive"
>>> result("Clc1cc(Nc2ncnc3sc(C#C[C@H]4CCCN4)cc23)ccc1OCc1cccnc1Cl")
"inactive"
>>> result("Cc1cc(C(=O)NC2CCN(Cc3ccccc3)CC2)ccc1-c1nc2ccc(C(F)(F)F)cc2[nH]1")
"inactive"
>>> result("CCc1c(C(=O)NC2CCC(N3CCC(c4ccccc4C)CC3)CC2)[nH]c2ccc(OC)cc12 (stereo not given)")
"inactive"
>>> result("COc1cc(NC2=NS(=O)(=O)c3cc(Cl)ccc3N2C)cc(OC)c1OC")
"inactive"
>>> result("N#Cc1ccc2c(c1)CCN(CCC1CCC(NC(=O)/C=C/c3c[nH]c4c(Br)cccc34)CC1)CC2 (stereo not given)")
"inactive"
>>> result("CC(=O)Oc1cc(C)ccc1C1CCN(CCCCNC(=O)c2ccc(NC(=O)c3ccc(Cl)cc3)cc2)CC1")
"inactive"
>>> result("Cc1cccc(NC(=S)NC2CCN(CCCCCNC(=O)/C=C/c3ccc(Cl)c(Cl)c3)CC2)c1")
"inactive"
>>> result("O=C(Cc1ccc(Cl)cc1)Nc1cc(Cl)ccc1Cn1cnc(N2CCNCC2)cc1=O")
"inactive"
>>> result("CCN(CCCN1CCCCC1)c1cc(C)nc(Nc2ccc(C(C)C)cc2)n1")
"inactive"
>>> result("Nc1c2c(nc3ccc(Oc4ccc(Br)cc4Br)cc13)CCCC2")
"inactive"
>>> result("Cc1nn(-c2ccnc3cc(Cl)ccc23)c(C)c1C(=O)NCc1cc(Cl)cc(Cl)c1")
"inactive"
>>> result("Cc1cnc(C(=O)Nc2cccc(-c3ccc(-c4nc5ccc(F)cc5[nH]4)cc3)c2)cn1")
"inactive"
>>> result("Cc1ccc2c(NN=Cc3ccc(Cl)cc3)cc(C)nc2c1")
"inactive"
